Values compiled from PubChem BioAssay AID652154.

- method: PAX8 transcriptional activity inhibition in RMG-I – RMG-I cells, luciferase, single concentration, primary screen (AID 652154);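 also: luciferase light reporting Pax8 driven TPO promoter activity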
- experimental.context: RMG-I TPO-luciferase reporter, SteadyGlo, 24 h; at 12.6 µM; stronger effect = higher value
In all, about 360,000 compounds went through this assay and about 4,200 (1.2%) were called active. This excerpt belongs to a sample that is enriched for actives.
Given measured inhibition, output Condition met if it is greater than or equal to 20% and Condition not met if not.

Before answering, review these 4 worked examples.
>>> assigned_label("O=S(=O)(c1ccc(F)cc1)N1CCCCN2[C@H](C1)[C@H](c1ccc(C3=CCCCC3)cc1)[C@@H]2CO")
"Condition not met"
>>> assigned_label("Cc1onc(C(=O)NN)c1C(=O)N1CCN(C(c2ccccc2)c2ccccc2)CC1")
"Condition not met"
>>> assigned_label("COc1cccc(S(=O)(=O)N[C@H]2CC[C@H](CC(=O)NC3CCC3)O[C@H]2CO)c1")
"Condition not met"
>>> assigned_label("Cc1ccccc1S(=O)(=O)N1CC[C@H]2[C@H](CO)Nc3ccc(-c4cccc(F)c4)cc3[C@H]21")
"Condition not met"

# evaluate next
Incoming: Reported inhibition at or above 20%? CC1(C)CC(N2CCN(C(c3ccccc3)c3ccccc3)CC2)=CC(=[N+]2CCCCC2)C1
Outgoing: Condition met
